biological target: T1, human TSH receptor (full length), coated on tubes (human, UniProt P16473 22-764); experiment: competition with 125I-K1-18 IgG on TSHR coated tubes; 0.3 µg/mL, diluted in assay buffer
T1 construct: TSHR coated tubes as described in WO2004/050708A2; Exact preparation on the tubes is not detailed here; also called thyroid stimulating hormone receptor
reported.endpoint: Inhibition of binding (%)

>>> meas_value("K1-18 Fab (Fab, V domains shown) VH: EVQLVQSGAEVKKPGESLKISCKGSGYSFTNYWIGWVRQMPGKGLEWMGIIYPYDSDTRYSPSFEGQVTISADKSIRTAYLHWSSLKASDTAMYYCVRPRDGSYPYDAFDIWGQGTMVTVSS VL: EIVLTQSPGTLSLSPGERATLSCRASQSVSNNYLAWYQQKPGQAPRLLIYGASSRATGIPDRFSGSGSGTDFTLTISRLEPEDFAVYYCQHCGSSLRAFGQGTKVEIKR")
"71.1%"
>>> meas_value("K1-70 Fab (Fab, V domains shown) VH: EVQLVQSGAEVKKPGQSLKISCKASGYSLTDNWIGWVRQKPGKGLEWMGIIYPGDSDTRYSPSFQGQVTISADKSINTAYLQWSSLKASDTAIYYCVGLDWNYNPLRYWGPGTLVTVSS VL: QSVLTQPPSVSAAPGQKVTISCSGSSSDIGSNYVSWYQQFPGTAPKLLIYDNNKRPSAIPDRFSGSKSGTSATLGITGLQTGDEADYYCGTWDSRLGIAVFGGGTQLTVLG")
"89.6%"
>>> meas_value("K1-70 IgG (antibody, V domains shown) VH: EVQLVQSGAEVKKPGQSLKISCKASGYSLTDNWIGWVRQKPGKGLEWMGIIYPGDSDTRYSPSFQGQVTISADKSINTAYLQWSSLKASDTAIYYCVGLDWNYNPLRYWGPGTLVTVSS VL: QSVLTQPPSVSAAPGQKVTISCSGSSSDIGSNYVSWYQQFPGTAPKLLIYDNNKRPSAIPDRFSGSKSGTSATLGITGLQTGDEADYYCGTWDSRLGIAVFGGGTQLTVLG")
"91.5%"
>>> meas_value("K1-18 IgG (antibody, V domains shown) VH: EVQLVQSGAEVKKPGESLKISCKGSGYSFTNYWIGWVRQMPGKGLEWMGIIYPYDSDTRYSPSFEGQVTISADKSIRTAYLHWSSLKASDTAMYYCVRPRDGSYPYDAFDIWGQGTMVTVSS VL: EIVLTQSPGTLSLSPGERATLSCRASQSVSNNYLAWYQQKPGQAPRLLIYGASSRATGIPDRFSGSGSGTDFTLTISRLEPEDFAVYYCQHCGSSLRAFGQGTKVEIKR")
"90.9%"
